Reference for the values: patent US20230357447A1

# Target of assay: T1, anti-CD28 scFv (VH-linker 1-VL) (biotinylated (site not stated))
# T1 construct: Captured as biotinylated scFv on neutravidin coated plates in the phage ELISA
# T1 sequence (scFv, as listed by the source): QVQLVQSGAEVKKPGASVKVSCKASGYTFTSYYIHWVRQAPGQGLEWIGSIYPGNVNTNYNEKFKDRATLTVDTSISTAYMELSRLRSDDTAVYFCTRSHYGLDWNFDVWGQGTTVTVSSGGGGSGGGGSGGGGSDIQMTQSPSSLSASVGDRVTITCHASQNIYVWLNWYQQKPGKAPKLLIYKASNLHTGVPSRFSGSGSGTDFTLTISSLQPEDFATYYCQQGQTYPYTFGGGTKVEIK
# Assay name: phage ELISA; scFv wells pre-incubated with soluble CD28 (competitor);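 note: crude clonal phage supernatants added to wells pretreated with soluble CD28 in blocking buffer, bound phage read via HRP-linked anti-M13 antibody, reference wells got blocking buffer only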
Recorded measurements of CD28 scFv signal in presence of CD28, one per entry
Endpoint label: CD28 scFv signal in presence of CD28

{"Binder": "MDWCPIHLWNECFN (on phage (pIII fusion)) [Phage-314 clonal phage peptide]", "Result number": 0.157}
{"Binder": "MTWCPTSFWNRCLD (on phage (pIII fusion)) [Phage-233 clonal phage peptide]", "Result number": 0.405}
{"Binder": "MDWCPTYLWNECFN (on phage (pIII fusion)) [Phage-320 clonal phage peptide]", "Result number": 0.606}
{"Binder": "MDWCPMFLWHECFN (on phage (pIII fusion)) [Phage-309 clonal phage peptide]", "Result number": 0.591}
